Target: T1, recombinant human CEACAM1-N domain-Kappa protein (Mogam, in-house production) (human, UniProt P13688 35-142, limits assumed)
T1 construct: domain: N domain; In-house fusion; also called HCCM1-N domain-kappa; HCCM1-N-domain-kappa
T1 sequence (looked up): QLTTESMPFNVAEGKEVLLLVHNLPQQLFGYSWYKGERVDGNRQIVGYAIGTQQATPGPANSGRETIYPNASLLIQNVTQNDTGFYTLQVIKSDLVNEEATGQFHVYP
Test: ELISA on coated antigen (0.25 µg/ml), antibody 3 µg/ml, HRP anti-human IgG Fc, OD450
READOUT LABEL: binding result

1) C22 (antibody, human IgG4 S228P, lambda, V domains shown) VH: EVQLLESGGGLVQPGGSLRLSCAASGFTFSDYDMSWVRQAPGKGLEWVSMIYSGSSSKYYADSVKGRFTISRDNSKNTLYLQMNSLRAEDTAVYYCAKAPLPFYFRPKSYYYAMDVWGQGTLVTVSS VL: QSVLTQPPSASGTPGQRVTISCSGSSSNIGSNNVTWYQQLPGTAPKLLIYANSHRPSGVPDRFSGSKSGTSASLAISGLRSEDEADYYCGSWDSSLNAYVFGGGTKLTVLG ... binds
2) C18 (antibody, human IgG4 S228P, lambda, V domains shown) VH: EVQLLESGGGLVQPGGSLRLSCAASGFTFSNYDMSWVRQAPGKGLEWVSGISHSSGSKYYADSVKGRFTISRDNSKNTLYLQMNSLRAEDTAVYYCARDPLPCLIPKCSYYYAMDVWGQGTLVTVSS VL: QSVLTQPPSAPGTPGQRVTISCSGSSSNIGSNAVTWYQQLPGTAPKLLIYADSHRPSGVPDRFSGSKSGTSASLAISGLRSEDEADYYCGSWDDSLNAYVFGGGTKLTVLG ... binds
3) C17 (antibody, human IgG4 S228P, lambda, V domains shown) VH: EVQLLESGGGLVQPGGSLRLSCAASGFTFSDYSMSWVRQAPGKGLEWVSVIYPDDGNTYYADSVKGRFTISRDNSKNTLYLQMNSLRAEDTAVYYCARGSIWWLSLIPSSYNAMDVWGQGTLVAVSS VL: QSVLTQPPSASGTPGQRVTISCSGSSSNIGNNAVNWYQQLPGTAPKLLIYANSHRPSGVPDRFSGSKSGTSASLAISGLRSEDEADYYCGAWDASLNGYVFGGGTKLTVLG ... binds
4) C15 (antibody, human IgG4 S228P, lambda, V domains shown) VH: EVQLLESGGGLVQPGGSLRLSCAASGFTFSSYSMSWVRQAPGKGLEWVSSISPNGGNKYYADSVKGRFTISRDNSKNTLYLQMNSLGAEDTAVYYCAKDPYNIYQPLFDYWGQGTLVTVSS VL: QSVLTQPLSASGTPGQRVTISCSGSSSNIGNNYVNWYQQLPGTAPKLLIYANSNRPSGVPDRFSGSKSGTSASLAISGLRSEEEADYYCGTWDASLSAYVFGGGTKLTVLG ... binds
